Tested on: Escherichia coli str. K-12 substr. DH10B
Protocol Summary: Activity at Escherichia coli DH10B beta-lactamase KPC-2 by diode array spectrophotometry
Please go through the items and note down their kcat.
Just the number please, in s⁻¹, no unit attached.

Ask: Please look at this compound and report its kcat: C[C@@H](O)[C@H]1C(=O)N2C(C(=O)O)=C(SCCNC=N)C[C@H]12 [IMIPENEM ANHYDROUS]
Result: 19

Ask: Please look at this compound and report its kcat: CCN1CCN(C(=O)N[C@@H](C(=O)N[C@@H]2C(=O)N3[C@@H]2SC(C)(C)[C@@H]3C(=O)O)c2ccccc2)C(=O)C1=O
Result: 17

Ask: Please look at this compound and report its kcat: CO/N=C(\C(=O)N[C@@H]1C(=O)N2C(C(=O)O)=C(COC(C)=O)CS[C@H]12)c1csc(N)n1
Result: 78

Ask: Please look at this compound and report its kcat: O=C(Cc1cccs1)N[C@@H]1C(=O)N2C(C(=O)O)=C(/C=C/c3ccc([N+](=O)[O-])cc3[N+](=O)[O-])CS[C@H]12
Result: 30

###

Test system: Escherichia coli str. K-12 substr. DH10B
Protocol Summary: Km for Escherichia coli DH10B beta-lactamase KPC-2
Attribute Measured: Km (µM)
Just the number please, in µM, no unit attached.

Ask: Determine reported Km for O=C(O)[C@H]1/C(=C/CO)O[C@@H]2CC(=O)N21 ; test system: Escherichia coli str. K-12 substr. DH10B.
Result: 8.4

Ask: Determine reported Km for C[C@]1(Cn2ccnn2)[C@H](C(=O)O)N2C(=O)C[C@H]2S1(=O)=O ; test system: Escherichia coli str. K-12 substr. DH10B.
Result: 78.5

Ask: Determine reported Km for O=C(O)C1=CSC2/C(=C\c3cc4n(n3)CSC4)C(=O)N12 (centres undefined) ; test system: Escherichia coli str. K-12 substr. DH10B.
Result: 0.06

Ask: Determine reported Km for CC1(C)[C@H](C(=O)O)N2C(=O)C[C@H]2S1(=O)=O ; test system: Escherichia coli str. K-12 substr. DH10B.
Result: 135

###

Please go through the items and note down their kcat/kinact.
System: Escherichia coli str. K-12 substr. DH10B
Protocol Summary: Ratio of Kcat to Kinact for Escherichia coli DH10B beta-lactamase KPC-2
Lab note: record just the number, no unit beside it.

Ask: Please look at this molecule and report its kcat/kinact: O=C(O)[C@H]1/C(=C/CO)O[C@@H]2CC(=O)N21
Result: 2500

Ask: Please look at this molecule and report its kcat/kinact: CC1(C)[C@H](C(=O)O)N2C(=O)C[C@H]2S1(=O)=O
Result: 1000

Ask: Please look at this molecule and report its kcat/kinact: O=C(O)C1=CSC2/C(=C\c3cc4n(n3)CSC4)C(=O)N12 (centres undefined)
Result: 250

Ask: Please look at this molecule and report its kcat/kinact: C[C@]1(Cn2ccnn2)[C@H](C(=O)O)N2C(=O)C[C@H]2S1(=O)=O
Result: 500

###

System: Escherichia coli
Protocol Summary: Antimicrobial activity against Escherichia coli DH10B harboring beta lactamase KPC-2 by CLSI method
Measurement Parameters: K-12 DH10B
Attribute Measured: MIC (µg/mL)
Just the number please, in µg/mL, no unit attached.

Ask: Please look at this compound and report its MIC: CC1(C)S[C@@H]2[C@H](NC(=O)[C@H](N)c3ccccc3)C(=O)N2[C@H]1C(=O)O [AMPICILLIN]
Result: 4100

Ask: Please look at this compound and report its MIC: C[C@@H](O)[C@H]1C(=O)N2C(C(=O)O)=C(SCCNC=N)C[C@H]12 [IMIPENEM ANHYDROUS]
Result: 8

Ask: Please look at this compound and report its MIC: CO/N=C(\C(=O)N[C@@H]1C(=O)N2C(C(=O)O)=C(COC(C)=O)CS[C@H]12)c1csc(N)n1 [CEFOTAXIME]
Result: 8

Ask: Please look at this compound and report its MIC: CCN1CCN(C(=O)N[C@@H](C(=O)N[C@@H]2C(=O)N3[C@@H]2SC(C)(C)[C@@H]3C(=O)O)c2ccccc2)C(=O)C1=O [PIPERACILLIN]
Result: 1020

###

System: Klebsiella pneumoniae
Protocol Summary: Antimicrobial activity against Klebsiella pneumoniae 1534 harboring beta lactamase KPC-2 by CLSI method
Type: functional
Attribute Measured: MIC (µg/mL)
Just the number please, in µg/mL, no unit attached.

Ask: Please look at this molecule and report its MIC: CO/N=C(\C(=O)N[C@@H]1C(=O)N2C(C(=O)O)=C(COC(C)=O)CS[C@H]12)c1csc(N)n1 [CEFOTAXIME]
Result: 16

Ask: Please look at this molecule and report its MIC: C[C@@H](O)[C@H]1C(=O)N2C(C(=O)O)=C(SCCNC=N)C[C@H]12 [IMIPENEM ANHYDROUS]
Result: 8

Ask: Please look at this molecule and report its MIC: CCN1CCN(C(=O)N[C@@H](C(=O)N[C@@H]2C(=O)N3[C@@H]2SC(C)(C)[C@@H]3C(=O)O)c2ccccc2)C(=O)C1=O [PIPERACILLIN]
Result: 1020

Ask: Please look at this molecule and report its MIC: CC1(C)S[C@@H]2[C@H](NC(=O)[C@H](N)c3ccccc3)C(=O)N2[C@H]1C(=O)O [AMPICILLIN]
Result: 8190

###

Protocol Summary: Activity at Escherichia coli DH10B beta-lactamase KPC-2 by diode array spectrophotometry
Design: species or system Escherichia coli str. K-12 substr. DH10B
Attribute Measured: Ki

Ask: Please look at this compound and report its Ki: CCN1CCN(C(=O)N[C@@H](C(=O)N[C@@H]2C(=O)N3[C@@H]2SC(C)(C)[C@@H]3C(=O)O)c2ccccc2)C(=O)C1=O
Result: 16 µM

Ask: Please look at this compound and report its Ki: CO/N=C(\C(=O)N[C@@H]1C(=O)N2C(C(=O)O)=C(COC(C)=O)CS[C@H]12)c1csc(N)n1
Result: 120 µM

Ask: Please look at this compound and report its Ki: C[C@@H](O)[C@H]1C(=O)N2C(C(=O)O)=C(SCCNC=N)C[C@H]12 [IMIPENEM ANHYDROUS]
Result: 19 µM

Ask: Please look at this compound and report its Ki: O=C(Cc1cccs1)N[C@@H]1C(=O)N2C(C(=O)O)=C(/C=C/c3ccc([N+](=O)[O-])cc3[N+](=O)[O-])CS[C@H]12
Result: 5 µM

###

Tested on: Escherichia coli str. K-12 substr. DH10B
Protocol Summary: Ratio of Kcat to Km for Escherichia coli DH10B beta-lactamase KPC-2
Please go through the items and note down their kcat/Km.

Ask: Please look at this compound and report its kcat/Km: O=C(Cc1cccs1)N[C@@H]1C(=O)N2C(C(=O)O)=C(/C=C/c3ccc([N+](=O)[O-])cc3[N+](=O)[O-])CS[C@H]12
Result: 6.4 µM/s

Ask: Please look at this compound and report its kcat/Km: CCN1CCN(C(=O)N[C@@H](C(=O)N[C@@H]2C(=O)N3[C@@H]2SC(C)(C)[C@@H]3C(=O)O)c2ccccc2)C(=O)C1=O
Result: 1.1 µM/s

Ask: Please look at this compound and report its kcat/Km: C[C@@H](O)[C@H]1C(=O)N2C(C(=O)O)=C(SCCNC=N)C[C@H]12 [IMIPENEM ANHYDROUS]
Result: 1 µM/s

Ask: Please look at this compound and report its kcat/Km: CO/N=C(\C(=O)N[C@@H]1C(=O)N2C(C(=O)O)=C(COC(C)=O)CS[C@H]12)c1csc(N)n1
Result: 0.6 µM/s

###

Please go through the items and note down their kinact/Km.
System: Escherichia coli str. K-12 substr. DH10B
Protocol Summary: Ratio of Kinact to Km for Escherichia coli DH10B beta-lactamase KPC-2

Ask: Please look at this molecule and report its kinact/Km: CC1(C)[C@H](C(=O)O)N2C(=O)C[C@H]2S1(=O)=O
Result: 1200 M⁻¹ s⁻¹

Ask: Please look at this molecule and report its kinact/Km: O=C(O)C1=CSC2/C(=C\c3cc4n(n3)CSC4)C(=O)N12 (centres undefined)
Result: 180000 M⁻¹ s⁻¹

Ask: Please look at this molecule and report its kinact/Km: C[C@]1(Cn2ccnn2)[C@H](C(=O)O)N2C(=O)C[C@H]2S1(=O)=O
Result: 2500 M⁻¹ s⁻¹

Ask: Please look at this molecule and report its kinact/Km: O=C(O)[C@H]1/C(=C/CO)O[C@@H]2CC(=O)N21
Result: 3600 M⁻¹ s⁻¹
